These data points were gathered from PubChem BioAssay (NCI).

- Tested on: A498 renal
- assay remarks: NCI-60 one-dose screen, 48 h (100 = growth as untreated, 0 = no growth, -100 = all killed)
- measurement conditions: 10 µM unless noted
This is part of a sample that, as a whole, favours compounds with a hit. Of some 83,000 tested, about 20% had one in any assay.
observation type: growth (%)

smiles representation | value
C/C(=C(\c1ccc(O)cc1)c1ccc(OCCN2CCCCCC2)cc1)c1ccc(Cl)cc1 | -91
CC(C)(C)c1cc(NC(=O)Nc2ccc(-c3cn4c5c(sc4n3)CCc3cn(CCCN4CCCCC4)cc3-5)cc2)no1 | 74.5
CC1=C(C)C(=O)C(Nc2cccc(C(=O)OC(C)(C)C)c2)=C(Cl)C1=O | 59.8
CN(C)c1cccc2c(S(=O)(=O)Nc3cccc(-c4csc(NC(=O)CCCCCN5CCN(CCO)CC5)n4)c3)cccc12 | 101

----------
- Tested on: MDA-MB-231 breast
- assay remarks: NCI-60 one-dose screen, 48 h (100 = growth as untreated, 0 = no growth, -100 = all killed)
- measurement conditions: 10 µM unless noted
- Protocol: Cells are grown in 96 well plates and exposed to the test compound for 48 hours. Compounds are tested at a single concentration, which is 10^-5 M for most compounds. The reported endpoint is percent growth (GI% or GIPRCNT), where numbers from 0 - 100% represent growth inhibition, and numbers from -100% - 0 represent cell death. For example, a value of 40 represents 60% growth inhibition. A value of 0 means no net growth occurred over the course of the experiment. […]
Compounds without any hit were thinned out: in the full panel of roughly 83,000, 20% have a hit. Active and inactive are the calls of the source. The calls were made as follows: active = growth percent below 10; inactive = the rest.
# growth listing for each entry below
observation type: growth

smiles representation | subject of test | value
C[C@]12CC[C@H]3[C@@H](CC=C4C[C@@H](O)CC[C@@]43C)[C@@H]1CC[C@@H]2[C@](C)(O)CCc1cccnc1 | MDA-MB-231 breast | 77.2% (inactive)
NS(=O)(=O)c1ccc(Nc2nc(N/N=C/C=C/c3ccccc3)nc(Nc3ccccc3)n2)cc1 | MDA-MB-231 breast | 47.9% (inactive)
O=C(Nc1ccc(Cl)c(C(F)(F)F)c1)Nc1ccc2oc(=O)ccc2c1 | MDA-MB-231 breast | 69.3% (inactive)
C#CCOc1ccc(/C=N/Nc2nc(-c3ccc(OC)cc3)cs2)cc1 | MDA-MB-231 breast | 91.3% (inactive)
CC(=O)c1cc(C(=O)N2c3ccccc3Sc3ccccc32)n2c1ccc1ccccc12 | MDA-MB-231 breast | 97.4% (inactive)

----------
# growth listing for each entry below
- System: MDA-MB-231 breast
- assay remarks: NCI-60 one-dose screen, 48 h (100 = growth as untreated, 0 = no growth, -100 = all killed)
- measurement conditions: 10 µM unless noted
About 83,000 compounds went through this panel and 20% of them were active in at least one assay; those are over-represented in the sample as a whole.
observation type: growth (%)

molecule | observation type | value
CN1CCN(Cc2ccc(/C=N/Nc3ccnc4cc(Cl)ccc34)cc2)CC1 | growth | 71.5
O=C1Nc2ccccc2/C1=N\c1nnc(-c2ccccc2)o1 | growth | 82.9
CN1CCN(c2ccc(Nc3nc(NCCNC(=O)c4ccc(F)cc4)c4sccc4n3)cc2)CC1 | growth | 59.4
O=C1[C@@H]2Cc3c([nH]c4ccccc34)[C@H](c3ccc(Cl)cc3)N2C(=O)CN1C1CCN(Cc2ccccc2)CC1 | growth | 68.6
COc1ccc(NC2=C(Br)C(=O)C(C)=C(C)C2=O)cc1OC | growth | 33.3
C/C(CC1(O)C(=O)Nc2ccccc21)=N\O (centres undefined) | growth | 94.8
Clc1cccc(/C=N/Nc2nc(N/N=C/c3cccc(Cl)c3)nc(N3CCCCC3)n2)c1 | growth | 116
CC1=C(C)C(=O)C(Nc2cccc(C(F)(F)F)c2)=C(Br)C1=O | growth | 69.2
CCCCCCNC(=O)Oc1ccc(/C(=C(/C)c2ccc(Cl)cc2)c2ccc(OCCN3CCCCCC3)cc2)cc1 | growth | 76.1
O=C1Nc2ccccc2/C1=C/c1ccc(OCC(=O)c2ccccc2)cc1 | growth | 96.2
COc1cc2cc(Oc3ccc(NC(=O)c4cc(C(F)(F)F)cc(C(F)(F)F)c4)cc3)c(C)nc2cc1OCCN1CCOCC1 | growth | 75.7
CCN(CC)c1ccc(/C=N/NC(=O)c2ccc(NS(C)(=O)=O)cc2)cc1 | growth | 43.2
CCc1cc(O)ccc1Nc1cc(-c2ccc(-n3cccn3)cc2)[nH]n1 | growth | 92.9
Brc1cc(-c2cc(-c3ccc4c(c3)OC=CO4)[nH]n2)cs1 | growth | 81.2
O=C(CCCCCCNC(=O)C(O)(O)C(F)(F)F)Nc1ncc(-c2ccc(Br)cc2)s1 | growth | 19.7
COCCOc1ccc2ncc(C#Cc3cncc(C(=O)Nc4ccc(CN5CCN(C)CC5)c(C(F)(F)F)c4)c3)n2n1 | growth | -28.5
Cc1[nH]c(C(=O)Nc2ccccc2OCc2cccc(C(=O)NCCN)c2)cc1Cl | growth | 96
O=c1c2cc(-c3ccc(F)cc3F)ccc2n(O)c(=O)n1-c1cccc(C(F)(F)F)c1 | growth | -10.3
CC[C@]12C=CCN3CC[C@@]4(c5ccc(OC)cc5N(C)[C@H]4[C@@](O)(C(=O)OC)[C@@H]1OC(=O)CCN1CCc4ccccc4C1)[C@@H]32 | growth | 84.9

----------
- Tested on: OVCAR-4 ovarian
- assay remarks: NCI-60 one-dose screen, 48 h (100 = growth as untreated, 0 = no growth, -100 = all killed)
- measurement conditions: 10 µM unless noted
This is part of a sample that, as a whole, favours compounds with a hit. Of some 83,000 tested, about 20% had one in any assay.

molecule | growth, %
CN1CCN(c2ccc(Nc3nc(NCCNS(=O)(=O)c4ccccc4)c4sccc4n3)cc2)CC1 | 92.5
Cn1ncc2ncc(-c3ccc4ncc(C#N)c(N5CCc6cc(F)c(Cl)cc65)c4c3)cc21 | 26.1
CCCCCCNC(=O)Oc1ccc(/C(=C(/C)c2ccc(Cl)cc2)c2ccc(OCCN3CCCCCC3)cc2)cc1 | 61
O=C(/C=C/c1cccc(C(F)(F)F)c1)Nc1cccc(C(F)(F)F)c1 | 47.7
C=C(C)[C@@H]1CC[C@]2(C(=O)O)CC[C@]3(C)[C@H](CC[C@@H]4[C@@]5(C)C/C(=C/c6ccccn6)C(=O)C(C)(C)[C@@H]5CC[C@]43C)[C@@H]12 | 36.2
CC(Nc1c(C#N)cnc2ccc(-c3cncc(O)c3)cc12)c1ccccc1 (stereo not drawn) | -17.5
CCN(CC)c1ccc(/C=N/NC(=O)c2ccc(NS(C)(=O)=O)cc2)c(O)c1 | 31.3
CCNCCOc1ccc(/C(=C(/CC)c2ccc(Cl)cc2)c2ccc(OCCCN(C)C)cc2)cc1 | -88
CC(C)[C@H]1c2[nH]c3ccccc3c2C[C@H]2C(=O)N(CCCCCCC(=O)NO)CC(=O)N12 | 99.9
CN1CCN(Cc2ccc(NC(=O)c3cncc(C#Cc4cnc5ccc(N6CCOCC6)nn45)c3)cc2C(F)(F)F)CC1 | -19.7
C#CCN(C)CCCOc1ccc(NCc2ccc(/C=C/C(=O)NO)cc2)cc1Cl | 22.4
Cn1cc(-c2cc3ncnc(Nc4ccc(NC(=O)Nc5cc(C(C)(C)C)on5)cc4)c3s2)cn1 | 41
CCc1cccc2c3c(sc12)C(c1ccc(F)cc1)C(C#N)=C(/N=C/c1ccc(Cl)cc1)O3 (stereo not drawn) | 80.6
CS(=O)(=O)c1ccc(/C(=N/N=C(N)N)c2ccc(Cl)cc2)cc1 | 98.4
COC(=O)c1ccc(NC2=C(Cl)C(=O)C(C)=C(C)C2=O)cc1 | 32.4
O=S(=O)(Oc1ccc(-c2cn3ccsc3n2)cc1)c1cccc(C(F)(F)F)c1 | 96.5
CCOc1cccc(/C(N)=N/C(N)=N/c2nc3ccccc3s2)c1 | 95.1
O=C(/C=C/c1cccc(F)c1)c1cccc(OCCCOc2cccc(C(=O)/C=C/c3cccc(F)c3)c2)c1 | 75.3
COc1ccc(NC(=O)CCCCCCNC(=O)C(O)(O)C(F)(F)F)cc1 | 77.7
Clc1cccc(/C=N/Nc2nc(N/N=C/c3cccc(Cl)c3)nc(N3CCOCC3)n2)c1 | 66.4
CS(=O)(=O)c1nccc(-c2c(-c3cccc(OCc4ccc(Cl)c(C(F)(F)F)c4)c3)nc3sccn23)n1 | 71.9
COC(=O)CCCNCCCn1ccc2cc(NCc3cccc(-c4ccccc4)c3C)ccc21 | 67.6
NC(=S)n1c(=O)n(-c2cccc(C(F)(F)F)c2)c(=O)c2cc(-c3ccc(F)cc3F)ccc21 | 29.9
CNC(=O)c1cc(N2CCc3cc(NC(=O)Nc4ccc(N5CCOCC5)c(C(F)(F)F)c4)ccc32)ccn1 | 41.4
CC1=C(C)C(=O)C(Nc2cccc(C(=O)OC(C)(C)C)c2)=C(Cl)C1=O | 80.2
Cc1ccsc1[C@H]1c2[nH]c3ccccc3c2C[C@H]2C(=O)N(CCCCCCC(=O)NO)CC(=O)N12 | 106
O=C(Nc1cccc(Cl)c1)Nc1nc2cc([N+](=O)[O-])ccc2o1 | 3.58
Nc1ccc(Nc2ncnc3sc4c(c23)CCN(Cc2ccccc2)C4)cc1 | 96.8
C#CCN(C)CCCOc1ccc(NC(=O)CCCCCCCCC(=O)NO)cc1Cl | 74.3
C/C(=N\NC(=O)/C=C/CC(=O)O)c1nnn(-c2ccc([N+](=O)[O-])cc2)c1C | 106
O=C(CCCCCCNC(=O)C(O)(O)C(F)(F)F)Nc1ncc(-c2ccc(Br)cc2)s1 | 21.8
CC(=O)Nc1nc(C)c(-c2csc(Nc3ccccc3)n2)s1 | 54.7
O=C(Nc1ccc(N2CCOCC2)cc1)Nc1ccc2c(ccn2C(=O)c2cccc(F)c2)c1 | 82.6
O=C(N/N=C\c1ccc(F)cc1)c1ccc2nc(-c3ccc(Br)cc3)[nH]c2c1 | 12.5
C[C@H](Nc1ncnc2ccc(-c3cnc(Cl)c(NS(C)(=O)=O)c3)cc12)c1ccccc1 | 0.576
CN1CCN(Cc2ccc(NC(=O)c3cncc(C#Cc4cnc5ccc(NCCO)nn45)c3)cc2C(F)(F)F)CC1 | -9.76
COc1ccc(-c2c3c(cn2Cc2cccc(OC)c2)-c2oncc2CCC3)cc1 | 100
O=C1Nc2ccccc2/C1=N\c1nnc(-c2ccccc2)o1 | 98.7
